Hello, the source for this data is ChEMBL document CHEMBL3994673, in case you need it.

pIC50 reference
TARGET UNDER TEST: Serine/threonine-protein kinase pim-3 (Homo sapiens, UniProt Q86V86)
TEST NAME: Inhibition of full length recombinant human N-terminal GST-tagged PIM3 (1 to 326 end residues) expressed in baculovirus infected sf21 cells using S6K2 peptide as substrate by electrophoretic mobility shift assay
// pIC50 here means minus log10 of the molar concentration (mol/L)

>>> meas_value("O=C1/C(=C/c2c[nH]c3nc(Cl)ccc23)Oc2c1ccc(O)c2CN1CCNCC1")
9.06

// next entry
Give its pIC50 value. Item: COc1ccc2c(c1CN1CCNCC1)O/C(=C\c1c[nH]c3nc(Cl)ccc13)C2=O
9.40

* * *

TEST NAME: Aqueous solubility of the compound in pH 7.4 PBS by HPLC-UV method
Type: physicochemical
METRIC NAME: solubility (µM)
The reply should be a number in µM, with the unit left off.

// known answers, use as guide
>>> meas_value("COc1ccc2c(c1CN1CCNCC1)O/C(=C\\c1c[nH]c3nc(Cl)ccc13)C2=O")
21
>>> meas_value("O=C1/C(=C/c2c[nH]c3nc(Cl)ccc23)Oc2c1ccc(O)c2CN1CCNCC1")
130

// next entry
Give its solubility value. Item: COc1ccc2c(c1CN1CCNCC1)O/C(=C\c1c[nH]c3nc(C)ccc13)C2=O
130

* * *

TARGET UNDER TEST: Serine/threonine-protein kinase pim-1 (Homo sapiens, UniProt P11309)
Sequence (P11309 whole entry): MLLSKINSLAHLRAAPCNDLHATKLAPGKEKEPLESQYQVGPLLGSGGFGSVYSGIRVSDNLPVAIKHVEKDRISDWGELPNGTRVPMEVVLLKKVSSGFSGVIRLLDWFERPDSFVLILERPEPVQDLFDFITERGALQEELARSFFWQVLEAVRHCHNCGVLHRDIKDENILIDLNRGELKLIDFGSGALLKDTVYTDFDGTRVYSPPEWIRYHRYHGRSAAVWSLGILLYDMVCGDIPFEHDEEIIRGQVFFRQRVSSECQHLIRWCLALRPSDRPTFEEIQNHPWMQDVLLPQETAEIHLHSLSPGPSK
TEST NAME: Inhibition of PIM1 (unknown origin) using 5-FAM-RSRHSSYPAGT-CONH2 as substrate after 2 hrs by electrophoretic mobility shift assay
IC50 reference
The reply should be a number in nM, with the unit left off.

>>> meas_value("O=C1/C(=C/c2c[nH]c3nc(Cl)ccc23)Oc2c1ccc(O)c2CN1CCNCC1")
1.4
>>> meas_value("O=C1/C(=C/c2c[nH]c3nc(F)ccc23)Oc2c1ccc(O)c2CN1CCNCC1")
1.8
>>> meas_value("COc1ccc2c(c1CN1CCNCC1)O/C(=C\\c1c[nH]c3ncccc13)C2=O")
0.84
>>> meas_value("COc1ccc2c(c1CN1CCNCC1)O/C(=C\\c1c[nH]c3nc(C)ccc13)C2=O")
0.64

// next entry
Give its IC50 value. Item: CCc1ccc2c(/C=C3\Oc4c(ccc(OC)c4CN4CCNCC4)C3=O)c[nH]c2n1
1.1
